Biological target: Signal transducer and activator of transcription 3 (Homo sapiens) (UniProt P40763)
Assay: blockers of STAT3 signaling, concentration series – cell-based, dose response (AID 1399)
Conditions: human cell STAT3 reporter inhibition
PROPERTY_LABEL: IC50

>>> result_value("O=C(Nc1cccc(Cl)c1)Nc1ccnc(-c2cccnc2)n1")
"3.2 µM"
>>> result_value("CCC(C)(C)c1ccc(OCCCC[n+]2cccc(C)c2)c(C(C)(C)CC)c1")
"4.09 µM"
>>> result_value("COc1ccc(CC(=O)Nc2cccc(SC)c2)cc1OC")
"6.37 µM"
>>> result_value("Clc1ccc(OCc2cc(-c3ccccc3)no2)c(Cl)c1")
"8.02 µM"
>>> result_value("O=C(Nc1cccc(O)c1)C(=O)Nc1ccccn1")
"3.7 µM"

In: For the molecule CCCOc1ccc(/C=N/NC(=S)Nc2ccccc2[N+](=O)[O-])c(O)c1 , what IC50 is on record?
Out: 1.05 µM

In: For the molecule COc1ccc2cc(-c3cc(C(=O)OCC(=O)Nc4c(C)n(C)n(-c5ccccc5)c4=O)c4ccccc4n3)ccc2c1 , what IC50 is on record?
Out: 4.63 µM

In: For the molecule O=C(Nc1ccncc1)c1ccc(-c2ccccc2)cc1 , what IC50 is on record?
Out: 2.16 µM

In: For the molecule O=C(Oc1ccccc1N1C(=O)C2CCCCC2C1=O)c1ccccc1 (stereo unspecified) , what IC50 is on record?
Out: 7.93 µM

In: For the molecule Cn1c(=O)oc2cc(S(=O)(=O)N3CCCC(C(=O)N4CC=C(c5ccccc5)CC4)C3)ccc21 (stereo unspecified) , what IC50 is on record?
Out: 5.41 µM

In: For the molecule Cc1cccc(-c2nc3cc(NC(=O)C4CCCO4)ccc3o2)c1 (stereo unspecified) , what IC50 is on record?
Out: 6.32 µM
